- Test details: chemical genetic growth profiling, strain panel (AID 1159580);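 also: tested at 20 µM; growth read once vehicle control cultures reached saturation at 30 °C; 1 = growth at the plate median or of vehicle wells; lower values mean less growth of the strain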
- Condition parameters: S. cerevisiae deletion strains, growth OD, locus YMR078C, strain ctf18, stronger effect = lower value
The whole screen tested about 5,500 compounds, of which about 2,000 (36%) were called active. About 18% were inconclusive and are not listed. The list shows a part of the results.
# if measured normalized growth < 1: rule met  # else: rule not met

{"Compound": "O=C(O)COc1cc(Cl)c(Cl)cc1Cl", "Class name": "rule not met"}
{"Compound": "Oc1ccc(O)cc1", "Class name": "rule not met"}
{"Compound": "c1ccc(CC2=NCCN2)cc1", "Class name": "rule met"}
{"Compound": "Oc1c(Cl)c(Cl)c(Cl)c(Cl)c1Cl", "Class name": "rule met"}

Hello, is normalized growth of the following compound strictly smaller than 1? COc1cccc2c1CCC1CC(=O)CCC21C (centres undefined)
rule met

Hello, is normalized growth of the following compound strictly smaller than 1? `O=C1C[C@@H](c2ccccc2)Oc2cc(O)cc(O)c21`
rule met

Hello, is normalized growth of the following compound strictly smaller than 1? `COc1cc(O)c2c(=O)cc(C)oc2c1CC=C(C)C`
rule met

Hello, is normalized growth of the following compound strictly smaller than 1? `COC(=O)COc1cc(Cl)c(Cl)cc1Cl`
rule met

Hello, is normalized growth of the following compound strictly smaller than 1? CC(=O)[C@H]1CCC2C3C[C@H](C)C4=CC(=O)CC[C@]4(C)C3[C@@H](O)C[C@@]21C (some centres undefined)
rule met

---

- Test details: chemical genetic growth profiling, strain panel (AID 1159580);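 also: tested at 20 µM; growth read once vehicle control cultures reached saturation at 30 °C; 1 = growth at the plate median or of vehicle wells; lower values mean less growth of the strain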
- Condition parameters: S. cerevisiae deletion strains, growth OD, locus YJL115W, strain asf1, stronger effect = lower value
The campaign covered roughly 5,500 compounds. About 2,000 (36%) were called active. Roughly 18% stayed inconclusive and do not appear here. The list shows a part of the results.
Observed property: normalized growth
Answers are plain numbers.

# annotated cases, reported normalized growth shown
{"Compound": "CC(=O)O[C@]1(C(C)=O)CCC2C3C[C@H](C)C4=CC(=O)CC[C@]4(C)C3CC[C@@]21C (some centres undefined)", "normalized growth": 0.969}
{"Compound": "NC/C=C/C(=O)O", "normalized growth": 0.994}
{"Compound": "C[CH2][Hg][S]c1ccccc1C(=O)O", "normalized growth": 0.0695}

The following compounds each have a reported value; give each one's normalized growth.
1. COc1ccc(-c2coc3c(OC)c(OC)cc(O)c3c2=O)cc1
2. CN1CCCC(n2nc(Cc3ccc(Cl)cc3)c3ccccc3c2=O)CC1 (centres undefined)
3. CC(C)[C@H](N)C(=O)OCCOCn1cnc2c(=O)[nH]c(N)nc21
4. O=C(O)COc1cc(Cl)c(Cl)cc1Cl
5. c1ccc(CC2=NCCN2)cc1
6. COc1ccc(-c2coc3c(O)c(OC)ccc3c2=O)cc1
7. COc1cc(O)c(C(=O)c2ccccc2)cc1O

1. 1.01
2. 1.02
3. 1.01
4. 0.991
5. 1.02
6. 0.943
7. 1.02

The following compounds each have a reported value; give each one's normalized growth.
1. CCc1ccc(CCOc2ccc(CC3SC(=O)NC3=O)cc2)nc1 (centres undefined)
2. COc1ccc(C(=O)c2ccccc2O)c(O)c1
3. CCc1nc(N)nc(N)c1-c1ccc(Cl)cc1
4. CCCCCC(=O)O[C@]1(C(C)=O)CCC2C3CCC4=CC(=O)CC[C@]4(C)C3CC[C@@]21C (some centres undefined)
5. OCc1ccccc1O[C@@H]1O[C@H](CO)[C@@H](O)[C@H](O)[C@H]1O

[1, 0.91, 0.961, 1, 0.992]

The following compounds each have a reported value; give each one's normalized growth.
1. COC(=O)C1=COC(OC2OC(CO)C(O)C(O)C2O)C2C(C)CC(=O)C12O (centres undefined)
2. CC(=O)O[C@@](C)(CCC=C(C)C)C1CC=C(C)CC1 (some centres undefined)
3. COc1ccc2c(c1)[C@@]1(C)CCC(=O)C[C@H]1CC2

1. 0.972
2. 0.989
3. 0.936

The following compounds each have a reported value; give each one's normalized growth.
1. O=[N+]([O-])O[C@H]1CO[C@H]2[C@@H]1OC[C@H]2O[N+](=O)[O-]
2. CC(=O)O[C@]1(C(C)=O)CCC2C3C=C(C)C4=CC(=O)CCC4(C)C3CCC21C (some centres undefined)
3. COc1ccc(C(=O)c2ccccc2)c(O)c1
4. CC[C@@H](CO)NCCN[C@@H](CC)CO
5. CCN(CC)C(=S)SSC(=S)N(CC)CC
6. O=C(O)c1ccccc1OP(=O)(O)O

[0.991, 0.973, 0.869, 1.01, 0.0765, 0.99]

Each recorded value in this set is attributed to PubChem BioAssay AID1159580.
